target: Melanocortin receptor 4 (Homo sapiens, UniProt P32245); assay: Intrinsic activity at human MC4 receptor expressed in CHO cells assessed as accumulation of cAMP production relative to alphaMSH; format: functional, cell-based
Sequence (P32245 whole entry): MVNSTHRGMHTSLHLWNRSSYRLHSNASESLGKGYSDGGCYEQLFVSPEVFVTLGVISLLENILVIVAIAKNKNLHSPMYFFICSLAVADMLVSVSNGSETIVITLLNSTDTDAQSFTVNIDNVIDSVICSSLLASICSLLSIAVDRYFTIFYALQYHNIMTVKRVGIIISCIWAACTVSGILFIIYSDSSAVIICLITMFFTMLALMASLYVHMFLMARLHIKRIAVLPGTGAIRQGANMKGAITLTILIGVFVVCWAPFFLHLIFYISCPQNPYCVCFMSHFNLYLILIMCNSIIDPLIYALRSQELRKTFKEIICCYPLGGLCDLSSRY
Catalogue of Intrinsic activity values

| Compound | Intrinsic activity [%] |
| --- | --- |
| CC(C)[C@H](NC(=O)CCN(C)C)c1cccc(F)c1N1CCN(C(=O)[C@@H]2CN(C(C)C)C[C@H]2c2ccc(F)c(Cl)c2)CC1 | 78 |
| Cc1ccc(N2CCN(C(=O)[C@@H]3CN(C4CCOCC4)C[C@H]3c3ccc(Cl)cc3)CC2)c([C@@H](NC(=O)CCN(C)C)C(C)C)c1 (stereo in doubt; 13b) | 121 |
| CNCC(=O)N[C@H](c1cc(C)ccc1N1CCN(C(=O)[C@@H]2CN(C3CCOCC3)C[C@H]2c2ccc(Cl)cc2)CC1)C(C)C | 84 |
| Cc1ccc(N2CCN(C(=O)[C@@H]3CNC[C@H]3c3ccc(Cl)cc3)CC2)c([C@@H](NC(=O)CCN(C)C)C(C)C)c1 | 72 |
| Cc1ccc(N2CCN(C(=O)[C@@H]3CN(C4CCOCC4)C[C@H]3c3ccc(Cl)cc3)CC2)c([C@@H](NC(=O)CN)C(C)C)c1 | 114 |
| CC(C)[C@H](NC(=O)CCN(C)C)c1cccc(F)c1N1CCN(C(=O)[C@@H]2CN(C(C)C)C[C@H]2c2ccc(Cl)cc2)CC1 | 103 |
| CC(C)[C@H](NC(=O)CCN(C)C)c1cccc(F)c1N1CCN(C(=O)[C@@H]2CN(C(C)C)C[C@H]2c2ccc(C(F)(F)F)c(F)c2)CC1 | 47 |
| CC(=O)N1C[C@@H](C(=O)N2CCN(c3ccc(C)cc3[C@@H](NC(=O)CCN(C)C)C(C)C)CC2)[C@H](c2ccc(Cl)cc2)C1 | 100 |
| Cc1ccc(N2CCN(C(=O)[C@@H]3CN(C4CCOCC4)C[C@H]3c3ccc(Cl)cc3)CC2)c([C@@H](NC(=O)[C@H](C)N)C(C)C)c1 | 38 |
| CCC(=O)N1C[C@@H](C(=O)N2CCN(c3ccc(C)cc3[C@@H](NC(=O)CCN(C)C)C(C)C)CC2)[C@H](c2ccc(Cl)cc2)C1 | 129 |
| Cc1ccc(N2CCN(C(=O)[C@@H]3CN(C4CCOCC4)C[C@H]3c3ccc(Cl)cc3)CC2)c([C@@H](NC(=O)CCN)C(C)C)c1 | 107 |
| Cc1ccc(N2CCN(C(=O)[C@@H]3CN(C4CCOCC4)C[C@H]3c3ccc(Cl)cc3)CC2)c([C@@H](N)C(C)C)c1 | 36 |
| Cc1ccc(N2CCN(C(=O)[C@H]3CN(C4CCOCC4)C[C@@H]3c3ccc(Cl)cc3)CC2)c([C@@H](NC(=O)CCN(C)C)C(C)C)c1 | 10 |
| CC(C)[C@H](NC(=O)CCN(C)C)c1cccc(F)c1N1CCN(C(=O)[C@@H]2CN(C(C)C)C[C@H]2c2ccc(Cl)cc2Cl)CC1 | 24 |

###

assay: Apparent permeability across human Caco-2 cells from apical to basolateral side; type: ADME, cell-based

| Molecule | Result units | Papp A→B |
| --- | --- | --- |
| Cc1ccc(N2CCN(C(=O)[C@@H]3CN(C4CCOCC4)C[C@H]3c3ccc(Cl)cc3)CC2)c([C@@H](NC(=O)CCN(C)C)C(C)C)c1 (stereo in doubt; 13b-1) | ×10⁻⁶ cm/s | 0.16 |

###

target: Melanocortin receptor 3 (Homo sapiens)
Sequence (P41968 whole entry): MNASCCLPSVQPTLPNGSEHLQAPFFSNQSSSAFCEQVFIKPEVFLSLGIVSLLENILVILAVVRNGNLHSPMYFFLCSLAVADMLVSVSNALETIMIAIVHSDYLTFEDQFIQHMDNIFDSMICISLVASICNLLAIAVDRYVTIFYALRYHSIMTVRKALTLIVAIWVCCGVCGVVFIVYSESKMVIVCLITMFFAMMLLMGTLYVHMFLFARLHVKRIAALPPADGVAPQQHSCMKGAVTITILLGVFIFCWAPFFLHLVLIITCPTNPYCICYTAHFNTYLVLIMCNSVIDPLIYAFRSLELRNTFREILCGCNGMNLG

| Compound | Study system | Ki, µM |
| --- | --- | --- |
| Cc1ccc(N2CCN(C(=O)[C@@H]3CN(C4CCOCC4)C[C@H]3c3ccc(Cl)cc3)CC2)c([C@@H](NC(=O)CCN(C)C)C(C)C)c1 (stereo in doubt; 13b-1) | Melanocortin receptor 3 (Homo sapiens) | 0.26 |

###

test: Cmax in rat at 10 mg/kg, po; type: ADME, organism-based; set-up: dose 10 mg/kg, route oral; settings: in vivo
The entries below come with measured Cmax values attached.

| Molecule | Result units | Cmax |
| --- | --- | --- |
| Cc1ccc(N2CCN(C(=O)[C@H]3CN(C4CCOCC4)C[C@@H]3c3ccc(Cl)cc3)CC2)c([C@@H](NC(=O)CCN(C)C)C(C)C)c1 | ng/mL | 17 |
| Cc1ccc(N2CCN(C(=O)[C@@H]3CN(C4CCOCC4)C[C@H]3c3ccc(Cl)cc3)CC2)c([C@@H](NC(=O)CCN(C)C)C(C)C)c1 (stereo in doubt; 13b-1) | ng/mL | 14 |

###

assay: Bioavailability in rat at 10 mg/kg, po; format: ADME, organism-based; conditions: in vivo

| Molecule | bioavailability, % |
| --- | --- |
| Cc1ccc(N2CCN(C(=O)[C@H]3CN(C4CCOCC4)C[C@@H]3c3ccc(Cl)cc3)CC2)c([C@@H](NC(=O)CCN(C)C)C(C)C)c1 | 14 |
| Cc1ccc(N2CCN(C(=O)[C@@H]3CN(C4CCOCC4)C[C@H]3c3ccc(Cl)cc3)CC2)c([C@@H](NC(=O)CCN(C)C)C(C)C)c1 (stereo in doubt; 13b-1) | 10 |

###

assay: Clearance in rat at 2.5 mg/kg, iv; format: ADME, organism-based; set-up: dose 2.5 mg/kg, route intravenous; details: in vivo
Form field: clearance (one value per entry).

| Compound | clearance, mL/min/kg |
| --- | --- |
| Cc1ccc(N2CCN(C(=O)[C@@H]3CN(C4CCOCC4)C[C@H]3c3ccc(Cl)cc3)CC2)c([C@@H](NC(=O)CCN(C)C)C(C)C)c1 (stereo in doubt; 13b-1) | 129 |
| Cc1ccc(N2CCN(C(=O)[C@H]3CN(C4CCOCC4)C[C@@H]3c3ccc(Cl)cc3)CC2)c([C@@H](NC(=O)CCN(C)C)C(C)C)c1 | 82 |

###

biological target: Melanocortin receptor 4 (Homo sapiens, UniProt P32245)
pKi: −log10 of the molar value.
Rule: pKi of 8 or more gives 1 (yes); anything lower gives 0 (no).

| Molecule | Classification |
| --- | --- |
| Cc1ccc(N2CCN(C(=O)[C@@H]3CN(C4CCOCC4)C[C@H]3c3ccc(Cl)cc3)CC2)c([C@@H](NC(=O)CN)C(C)C)c1 | 1 (yes) |
| Cc1ccc(N2CCN(C(=O)[C@H]3CN(C(C)C)C[C@H]3c3ccc(Cl)cc3)CC2)c([C@@H](NC(=O)CCN(C)C)C(C)C)c1 | 0 (no) |
| CC(C)[C@H](NC(=O)CCN(C)C)c1cccc(F)c1N1CCN(C(=O)[C@@H]2CN(C(C)C)C[C@H]2c2ccc(Cl)cc2)CC1 | 1 (yes) |
| COc1cccc([C@@H]2CN(C(C)C)C[C@H]2C(=O)N2CCN(c3c(F)cccc3[C@@H](NC(=O)CCN(C)C)C(C)C)CC2)c1 | 0 (no) |
| CNCC(=O)N[C@H](c1cc(C)ccc1N1CCN(C(=O)[C@@H]2CN(C3CCOCC3)C[C@H]2c2ccc(Cl)cc2)CC1)C(C)C | 1 (yes) |
| CC(C)[C@H](NC(=O)CCN(C)C)c1cccc(F)c1N1CCN(C(=O)[C@@H]2CN(C(C)C)C[C@H]2c2cc(F)c(F)c(F)c2)CC1 | 0 (no) |
| CC(C)[C@H](NC(=O)CCN(C)C)c1cccc(F)c1N1CCN(C(=O)[C@@H]2CN(C(C)C)C[C@H]2c2cccc(Cl)c2)CC1 | 0 (no) |
| CC(C)[C@H](NC(=O)CCN(C)C)c1cccc(F)c1N1CCN(C(=O)[C@@H]2CN(C(C)C)C[C@H]2c2ccc(C(F)(F)F)cc2F)CC1 | 0 (no) |
| Cc1ccc(N2CCN(C(=O)[C@@H]3CN(C4CCOCC4)C[C@H]3c3ccc(Cl)cc3)CC2)c([C@@H](NC(=O)CCN)C(C)C)c1 | 1 (yes) |
| Cc1ccc(N2CCN(C(=O)[C@@H]3CN(C4CCOCC4)C[C@H]3c3ccc(Cl)cc3)CC2)c([C@@H](NC(=O)CCN(C)C)C(C)C)c1 (stereo in doubt; 13b-1) | 1 (yes) |
| Cc1ccc(N2CCN(C(=O)[C@@H]3CN(C4CCOCC4)C[C@H]3c3ccc(Cl)cc3)CC2)c([C@@H](NC(=O)CCN(C)C)C(C)C)c1 (stereo in doubt; 13b) | 1 (yes) |
| CC(C)[C@H](NC(=O)CCN(C)C)c1cccc(F)c1N1CCN(C(=O)[C@@H]2CN(C(C)C)C[C@H]2c2ccc(F)c(F)c2)CC1 | 0 (no) |
| Cc1ccc(N2CCN(C(=O)[C@@H]3CN(C4CCOCC4)C[C@H]3c3ccc(Cl)cc3)CC2)c([C@H](C(C)C)N(C)C)c1 | 1 (yes) |
| CC(C)[C@H](NC(=O)CCN(C)C)c1cccc(F)c1N1CCN(C(=O)[C@@H]2CN(C(C)C)C[C@H]2c2ccoc2)CC1 | 0 (no) |
